System: SF-295
Assay Method Text: NCI tumour cell line growth inhibition, 48 h
Active and inactive are the calls of the source. Rule as the data show it: active = GI50 up to about 1.1 µM and inactive = higher.
Answer with one of the outcomes Yes (active), No (inactive)

Compound	Measured On	Assigned Class
O=C1c2cnccc2Cc2cccc3c2N1c1ccccc1S3	SF-295	No
CC(=N\N=C\c1ccccn1)/C(C)=N/N=C(C)/C(C)=N/N=C(C)/C(C)=N/N=C/c1ccccn1	SF-295	No
Cc1cc(O)c2c(c1)C(C1c3cccc(O)c3C(=O)c3c(O)cc(C)cc31)c1cccc(O)c1C2=O (stereo unspecified)	SF-295	Yes
O=C(NCCc1ccccc1)c1cc(/C=C/c2cc(O)ccc2O)ccc1O	SF-295	No
CCOC(=O)/C(C#N)=C/c1[nH]c(C)c(C)c1C	SF-295	No

What was the test verdict on `COc1cccc(/N=C/c2cc(OC)c(OC)c(OC)c2)c1` ?
No

What was the test verdict on `CCOC(=O)c1cc(C#N)[nH]c1-c1ccsc1` ?
No

What was the test verdict on `NCC(=O)Nc1ccc(S(=O)(=O)O)c2cc(S(=O)(=O)O)cc(S(=O)(=O)O)c12` ?
No

What was the test verdict on COc1cc(C(=O)N2CCc3c([nH]c4c([N+](=O)[O-])c(OC)ccc34)C2C)cc(OC)c1OC (stereo unspecified) ?
No

What was the test verdict on `CON(C)c1nc(N)c(C#N)c(C#N)c1C#N` ?
No

What was the test verdict on `O=C(c1ccccc1)N1C2CCC1C(C(F)(F)F)=C2C(F)(F)F` ?
No

What was the test verdict on `O=C(Nc1ccc2ncccc2c1)c1cc2c(cc1Cl)Sc1nccn1S2(=O)=O` ?
No

What was the test verdict on `O=C(Nc1ccccc1-c1nn(CO)c(=S)n(CO)c1=O)C(F)(F)F` ?
No

What was the test verdict on C[C@]12CCC3[C@@H](C[C@H]4OC(=O)[C@@]35CCC(=O)C=C45)C1CCC2=O (stereo partly specified) ?
No

What was the test verdict on `CC(C)(C)c1ccc2c(c1)OP1(Oc3cccc4cccnc34)(O2)Oc2ccc(C(C)(C)C)cc2O1` ?
No

What was the test verdict on `O=C(CCl)Nc1ccc(C(=O)N/N=C/c2ccc(Cl)cc2)cc1` ?
No

What was the test verdict on O=C1C2C3C=CC(C2C(=O)N1CN1CCOCC1)C1C2C(=O)N(CN4CCOCC4)C(=O)C2C31 (stereo unspecified) ?
No
